System Tested: PXR (NR1I2) (Homo sapiens)
Sequence (O75469 whole entry): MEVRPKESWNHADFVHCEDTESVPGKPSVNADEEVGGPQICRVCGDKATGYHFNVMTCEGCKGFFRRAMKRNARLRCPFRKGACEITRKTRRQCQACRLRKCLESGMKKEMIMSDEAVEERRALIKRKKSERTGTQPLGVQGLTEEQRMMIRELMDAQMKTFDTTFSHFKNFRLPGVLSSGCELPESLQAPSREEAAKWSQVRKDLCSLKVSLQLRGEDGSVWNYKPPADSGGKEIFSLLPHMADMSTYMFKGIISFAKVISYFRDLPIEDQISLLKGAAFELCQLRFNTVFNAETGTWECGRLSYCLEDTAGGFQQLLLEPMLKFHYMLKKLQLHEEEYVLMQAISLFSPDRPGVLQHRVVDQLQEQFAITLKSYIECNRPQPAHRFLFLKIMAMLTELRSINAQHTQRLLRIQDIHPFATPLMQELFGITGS
Assay Summary: ATG_PXRE_CIS: Factorial reporter gene assay (HepG2)
Assay type: cell-based
Design: endogenous in cells; host or cells: HepG2
Condition Info: HepG2
Would you please tag the item Condition met when its ATG_PXRE_CIS is 5 or above, and Condition not met when it is below?

CCCN(CCOc1c(Cl)cc(Cl)cc1Cl)C(=O)n1ccnc1    Condition met
O=C(Nc1ccc([N+](=O)[O-])cc1Cl)c1cc(Cl)ccc1O    Condition met
CCCN(CCC)c1c([N+](=O)[O-])cc(C(F)(F)F)c(N)c1[N+](=O)[O-]    Condition met
C#CCOS(=O)OC1CCCCC1Oc1ccc(C(C)(C)C)cc1 (stereo not drawn)    Condition met
CCCN(CCC)c1c([N+](=O)[O-])cc(S(N)(=O)=O)cc1[N+](=O)[O-]    Condition met
S=C([S-])NCCNC(=S)[S-].[Zn+2]    Condition not met

Problem: Test whether the compound CCOc1cc(Oc2ccc(C(F)(F)F)cc2Cl)ccc1[N+](=O)[O-] records ATG_PXRE_CIS of 5 or higher.
Result: Condition not met

Problem: Test whether the compound O=S(=O)(O)C(F)(F)C(F)(F)C(F)(F)C(F)(F)C(F)(F)C(F)(F)C(F)(F)C(F)(F)F records ATG_PXRE_CIS of 5 or higher.
Result: Condition not met

Problem: Test whether the compound COc1cccc(C(=O)NN(C(=O)c2cc(C)cc(C)c2)C(C)(C)C)c1C records ATG_PXRE_CIS of 5 or higher.
Result: Condition met

Problem: Test whether the compound CNC(=O)ON=C(SC)C(=O)N(C)C records ATG_PXRE_CIS of 5 or higher.
Result: Condition not met
